Overview of reported p53-positive nuclei, normalised across a group of compounds:
# TEST SYSTEM: Cellular tumor antigen p53 (Homo sapiens)
# METHOD SUMMARY: p53 stabilisation in HPV-positive human cells, imaging, p53-positive nuclei imaging, 24 h, 48 h (AID 1508601)
# ASSAY SETUP: 24/48 h, measured here: p53 positive nuclei at 24 h, Library stock concentration: 370 uM, stronger effect = higher value
In all, about 5,700 compounds went through this assay and about 85 (1%) were called active. This excerpt belongs to a sample that is enriched for actives.
Write it as a number; the unit % goes unstated.

Completed entries (count: 3):
Which value of p53-positive nuclei, normalised has been reported for `CC1=CC(=O)c2c(O)cccc2C1=O` in the records? 0.0792

Next record, please: `CN1C(=O)[C@@]23C[C@]4([C@]56C[C@@]78SS[C@@](CO)(C(=O)N7[C@@H]5Nc5ccccc56)N(C)C8=O)c5ccccc5N[C@H]4N2C(=O)[C@]1(CO)SS3` 117

Next record, please: CC1OC(O[C@H]2CC[C@@]3(C)[C@@H](CC[C@@H]4[C@H]3CC[C@]3(C)[C@@H](C5=CC(=O)OC5)CC[C@]43O)C2)CC(O)C1O (stereo not given in full) 1.03

Continuing:
Which value of p53-positive nuclei, normalised has been reported for NOCCC(N)C(=O)O (stereo not given) in the records? 0.0115

Next record, please: `CC[n+]1c(-c2ccccc2)c2cc(N)ccc2c2ccc(N)cc21` 4.81

* * *

# TEST SYSTEM: Cellular tumor antigen p53 (Homo sapiens) (UniProt P04637)
# Sequence (P04637 whole entry, looked up): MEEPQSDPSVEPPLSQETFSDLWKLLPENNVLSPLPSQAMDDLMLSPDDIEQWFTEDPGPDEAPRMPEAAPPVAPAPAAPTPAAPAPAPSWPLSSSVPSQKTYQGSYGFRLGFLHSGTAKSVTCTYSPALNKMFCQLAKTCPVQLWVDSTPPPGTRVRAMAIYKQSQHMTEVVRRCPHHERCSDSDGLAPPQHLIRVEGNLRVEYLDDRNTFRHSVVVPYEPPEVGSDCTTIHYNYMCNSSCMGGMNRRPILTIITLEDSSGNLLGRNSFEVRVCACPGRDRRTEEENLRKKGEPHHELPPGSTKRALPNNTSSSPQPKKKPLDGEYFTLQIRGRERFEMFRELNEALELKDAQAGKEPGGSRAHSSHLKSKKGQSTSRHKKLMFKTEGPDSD
# METHOD SUMMARY: p53 stabilisation in HPV-positive human cells, imaging, p53-positive nuclei imaging, 24 h, 48 h (AID 1508601)
# ASSAY SETUP: 24/48 h, measured here: p53 positive nuclei at 24 h, Library stock concentration: 10 mM, stronger effect = higher value
Hit rate of the full screen: of about 5,700 compounds, about 85 (1%) were called active. What follows is part of a selection rich in actives, with near analogues and random picks from the rest.
Overview of reported p53-positive nuclei, normalised across a group of compounds:
Write it as a number; the unit % goes unstated.

Identify the measured p53-positive nuclei, normalised of `CC1=CC(=O)c2c(O)cccc2C1=O` for Cellular tumor antigen p53 (Homo sapiens) (UniProt P04637). -0.148

Continuing:
Identify the measured p53-positive nuclei, normalised of `NCCc1ccccc1Br` for Cellular tumor antigen p53 (Homo sapiens) (UniProt P04637). -0.0492

Next record, please: CC1CN(Cc2ccc(F)cc2)CCN1C(=O)COc1ccc(Cl)cc1NC(N)=O (configuration not stated) 0.0332

* * *

Overview of reported p53-positive nuclei, normalised across a group of molecules:
# TEST SYSTEM: Cellular tumor antigen p53 (Homo sapiens) (UniProt P04637)
# METHOD SUMMARY: p53 stabilisation in HPV-positive human cells, imaging, p53-positive nuclei imaging, 24 h, 48 h (AID 1508601)
# ASSAY SETUP: 24/48 h, measured here: p53 positive nuclei at 24 h, Library stock concentration: 80 uM, stronger effect = higher value
The campaign covered roughly 5,700 compounds. About 85 (1%) were called active. Many of the other results were omitted from the sample, so actives are more common in it than they were.
Write it as a number; the unit % goes unstated.

Completed entries (count: 2):
Which value of p53-positive nuclei, normalised has been reported for `NCCc1ccccc1Br` in the records? 0.101

Next record, please: CC1=C(O)C(=O)C=C2C1=CC=C1[C@@]2(C)CCC2(C)C3C[C@](C)(C(=O)O)CC[C@]3(C)CC[C@]12C (stereo partly drawn) 0.113

// moving on: another record for p53-positive nuclei, normalised
Which value of p53-positive nuclei, normalised has been reported for Cc1sc2c(c1C)C(c1ccc(Cl)cc1)=NC(CC(=O)Nc1ccc(O)cc1)c1nnc(C)n1-2 (stereo not drawn) in the records? 0.123
